The molecules listed here are annotated with their IC50.
# target.desc: SphK1 (Homo sapiens)
# Sequence (Q9NYA1 9-364 limits assumed): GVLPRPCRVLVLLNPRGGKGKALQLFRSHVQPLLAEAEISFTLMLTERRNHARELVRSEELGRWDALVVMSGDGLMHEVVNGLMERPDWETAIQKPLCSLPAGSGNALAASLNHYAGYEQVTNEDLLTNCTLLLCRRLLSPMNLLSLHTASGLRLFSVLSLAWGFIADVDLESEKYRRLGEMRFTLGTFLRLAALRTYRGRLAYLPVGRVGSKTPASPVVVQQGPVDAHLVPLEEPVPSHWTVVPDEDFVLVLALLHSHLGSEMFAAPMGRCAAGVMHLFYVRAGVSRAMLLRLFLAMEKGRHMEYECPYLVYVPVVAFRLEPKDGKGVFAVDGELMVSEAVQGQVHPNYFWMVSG

// worked examples, IC50 included
CC1(C)CCC(C)(C)c2cc(-c3cccc(N4CCC(N)CC4)n3)ccc21: 100 to 1000 nM
CC1(C)CCC(C)(C)c2cc(-c3cccc(N4CCC(NCCCCCO)CC4)n3)ccc21: 100 to 1000 nM
CC1(C)CC(C)(C)c2cc(-c3cccc(N4CCN(CCCCCO)CC4)n3)ccc21: 100 to 1000 nM
CC1(C)CCC(C)(C)c2cc(-c3cccc(N4CCN(CCCCCOC(=O)CN)CC4)c3)ccc21: 100 to 1000 nM

System SphK1 (Homo sapiens). Read-out IC50. Item `CC1(C)CCCc2cc(-c3cccc(N4CCN(CCCO)CC4)n3)ccc21` . Report value.
> 1000 nM

----------
Data export: IC50 values recorded with SphK1 (Homo sapiens).

Solved entries (count: 5):
CC1(C)CCCc2ccc(-c3cccc(N4CCNCC4)n3)cc21: > 1000 nM
CC1(C)CCC(C)(C)c2cc(-c3nccc(N4CCN(CCCO)CC4)n3)ccc21: 100 to 1000 nM
CC1(C)CCCc2ccc(-c3ncnc(N4CCNCC4)n3)cc21: > 1000 nM
CC1(C)CCC(C)(C)c2cc(-c3ccnc(N4CCN(CCCCO)CC4)c3)ccc21: 100 to 1000 nM
CC1(C)CCCc2cc(-c3cccc(N4CCNCC4)n3)ccc21: > 1000 nM

Return IC50 for the following compound: `CC1(C)CCC(C)(C)c2cc(-c3cccc(N4CCN(CCCCCO)CC4)n3)ccc21`
< 100 nM

Provide IC50 value for the following compound: `CC1(C)CCC(C)(C)c2cc(-c3cccc(N4CCN(CCCCO)CC4)c3)ccc21`
100 to 1000 nM

Consider the compound `CC1(C)CCC(C)(C)c2cc(-c3cccc(N4CCN(C[C@@H](N)CO)CC4)n3)ccc21` . State its measured IC50.
> 1000 nM
